Target: T1, thermolysin-cleaved EBOV GP on Jurkat-GP cells (cleaved GP) (Zaire ebolavirus, Makona (GP1 core …, strain))
T1 chain 1: not shown
T1 chain 2: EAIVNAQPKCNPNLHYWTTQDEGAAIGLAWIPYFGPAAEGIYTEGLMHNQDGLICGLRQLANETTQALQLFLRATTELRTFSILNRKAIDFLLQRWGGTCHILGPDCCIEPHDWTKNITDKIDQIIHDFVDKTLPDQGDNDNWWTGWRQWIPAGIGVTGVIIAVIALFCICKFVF
Measurement Name: binding result

5.6.c3362 (antibody, V domains shown) VH: QLQLQQSGPGLVKPSETLSLTCNVSGGSISSSSTYSWGWIRQPPGKGLEWIGNIYYSGSTYYNPSLKSRVTISVDTSKNQFSLKLSSVTAADTAVYYCARSFRGPTGAFYYYSYAMDVWGRGTTVTVSS VL: SSELTQDPAVSVALGQTVRITCQGDSLRTYYASWYQQKPGQAPVLVIYGKKNRPSGIPDRFSGSSSGNTASLTITGAQAEDEADYYCNSQDSSGDLVLFGGGTKVTAL ... binds
5.6.c4392 (antibody, V domains shown) VH: QVQLVESGGGVVQPGRSLRLSCAASGFFFRNYGIHWVRQAPGKGLEWVAIISYDESKKYYADSVKGRFTISRDNSKNTLYLQMNSLRAEDTAVYYCAKAHPHSRWFFDSWGQGTLVTVSS VL: NFVLTQPHSVSDSPGKTVTISCTRSSGSIATDYVQWYQQRPGSAPTLVIYEDNQRPSGVPNRFSGSIDSSSNSASLTISGLETEDEADYYCQSYDPTNLVFGGGTKLTVL ... binds
15.0.c775 (antibody, V domains shown) VH: EEQLLESGGGLVQPGGSLRLSCAASGFTFSGYDMSWVRQAPGKGLEWVSLLSWSGDAKYYADSVKGRFTISRDNSKNTLYLQMNSLRAEDTAVYYCAGDSSGYNNERLYYTYYMDVWGKGTTVTVSS VL: DIQMTQSPSSVSASVGDRVTITCRANQAISSWLAWYQQKPGKAPKLLISAASSLQSGVPPRFSGSGSGTDFTLTISSLQPEDFATYYCQQANSFPLTFGGGTKVEIK ... binds
